# Method Notes: Volume of distribution (Vz) in Sprague-Dawley rat at 5 mg/kg, iv measured up to 24 hrs
# Format: ADME, organism-based
# Experimental Parameters: in vivo, read-out: Vz
Test Readout: Vd (L/kg)
Form entry: value (L/kg) — number only.

Problem: # get_value(readout='Vd', item= COc1cc2c(cc1OC)[C@H]1Cc3ccc(NC(=O)NCc4ccc(OC(F)(F)F)cc4)cc3CN1CC2 )
Result: 1.49

----------
# Method Notes: Clearance in Sprague-Dawley rat at 5 mg/kg, iv measured up to 24 hrs
# Assay type: ADME, organism-based
# Experimental Parameters: in vivo
Test Readout: clearance (mL/min/kg)
Form entry: value (mL/min/kg) — number only.

Problem: # get_value(readout='clearance', item= COc1cc2c(cc1OC)[C@H]1Cc3ccc(NC(=O)NCc4ccc(OC(F)(F)F)cc4)cc3CN1CC2 )
Result: 2.85

----------
# Method Notes: Tmax in Sprague-Dawley rat at 20 mg/kg, po measured up to 24 hrs
# Type: ADME, organism-based
# Experimental Parameters: in vivo
Test Readout: Tmax (h)
Form entry: value (h) — number only.

Problem: # get_value(readout='Tmax', item= COc1cc2c(cc1OC)[C@H]1Cc3ccc(NC(=O)NCc4ccc(OC(F)(F)F)cc4)cc3CN1CC2 )
Result: 1.67

----------
# Test system: Staphylococcus aureus
# Method Notes: Antimicrobial activity against methicillin-resistant Staphylococcus aureus 19B120 by microbroth dilution method
# Type: functional
Test Readout: MIC (µg/mL)
Form entry: value (µg/mL) — number only.

Problem: # get_value(readout='MIC', item= COc1cc2cc3[n+](cc2cc1OC)CCc1cc(NC(=O)NCc2ccc(OC(F)(F)F)cc2)ccc1-3.[Cl-] )
Result: 4

Problem: # get_value(readout='MIC', item= COc1cc2c(cc1OC)-c1cc3ccc(NC(=O)NCc4ccc(OC(F)(F)F)cc4)cc3c[n+]1CC2 )
Result: 8

Problem: # get_value(readout='MIC', item= COc1ccc2cc3[n+](cc2c1OC)CCc1cc2c(cc1-3)OCO2 )
Result: 32

----------
# Method Notes: Clearance in Sprague-Dawley rat at 20 mg/kg, po measured up to 24 hrs
# Assay type: ADME, organism-based
# Experimental Parameters: in vivo
Test Readout: CL/F

Problem: # get_value(readout='CL/F', item= COc1cc2c(cc1OC)[C@H]1Cc3ccc(NC(=O)NCc4ccc(OC(F)(F)F)cc4)cc3CN1CC2 )
Result: 3.03 mL/min/kg

----------
# System: HepG2
# Method Notes: Cytotoxicity against human HepG2 cells assessed as cell viability at 0.5 to 5 uM measured after 48 hrs by CCK-8 assay
# Type: toxicity, cell-based
# Experimental Parameters: hepg2, 48 h, dose 0.5-5 µM
Test Readout: Activity

COc1cc2c(cc1OC)C1Cc3ccc(NC(=O)NCc4ccc(S(C)(=O)=O)cc4)cc3CN1CC2 (stereo not drawn) = Non-toxic
CCC(=O)N1CCC(CNC(=O)Nc2ccc3c(c2)CN2CCc4cc5c(cc4C2C3)OCO5)CC1 (stereo not drawn) = Non-toxic
COc1cc2c(cc1OC)CN1CCc3cc(NC(=O)NCc4ccc(OC(F)(F)F)cc4)ccc3C1C2 (stereo not drawn) = Non-toxic

----------
# System Tested: Bifunctional epoxide hydrolase 2 (Mus musculus, UniProt P34914)
# Sequence (P34914 whole entry): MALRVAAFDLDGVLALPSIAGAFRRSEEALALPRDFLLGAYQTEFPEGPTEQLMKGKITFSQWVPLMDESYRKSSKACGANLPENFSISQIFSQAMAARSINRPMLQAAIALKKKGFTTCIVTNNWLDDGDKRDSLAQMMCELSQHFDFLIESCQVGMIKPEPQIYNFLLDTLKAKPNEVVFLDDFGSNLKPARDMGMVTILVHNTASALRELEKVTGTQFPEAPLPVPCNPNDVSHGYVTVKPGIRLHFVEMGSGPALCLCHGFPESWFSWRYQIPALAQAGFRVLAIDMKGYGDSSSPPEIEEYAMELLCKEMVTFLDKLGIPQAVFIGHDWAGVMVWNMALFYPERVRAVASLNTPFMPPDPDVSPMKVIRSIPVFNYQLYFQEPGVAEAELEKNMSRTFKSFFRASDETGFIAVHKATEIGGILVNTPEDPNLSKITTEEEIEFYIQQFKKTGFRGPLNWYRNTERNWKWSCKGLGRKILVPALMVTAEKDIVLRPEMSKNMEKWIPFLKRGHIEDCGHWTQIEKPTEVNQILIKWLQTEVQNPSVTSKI
# Method Notes: Inhibition of male C57BL/6J mouse brain sEH assessed as quantity of 14,15-DHET level measured after 15 mins incubation by HPLC-MS analysis
Test Readout: IC50 (nM)
Form entry: value (nM) — number only.

Problem: Missing value: IC50, Bifunctional epoxide hydrolase 2 (Mus musculus, UniProt P34914), entry COc1cc2cc3[n+](cc2cc1OC)CCc1cc(NC(=O)NCc2ccc(OC(F)(F)F)cc2)ccc1-3.[Cl-] . Fill in?
Result: 39.1

Problem: Missing value: IC50, Bifunctional epoxide hydrolase 2 (Mus musculus, UniProt P34914), entry COc1cc2c(cc1OC)C1Cc3ccc(NC(=O)NCC4CCCCC4)cc3CN1CC2 (stereo not given) . Fill in?
Result: 4.98

Problem: Missing value: IC50, Bifunctional epoxide hydrolase 2 (Mus musculus, UniProt P34914), entry O=C(NCC1CCOCC1)Nc1ccc2c(c1)CN1CCc3cc4c(cc3C1C2)OCO4 (stereo not given) . Fill in?
Result: 15.9

Problem: Missing value: IC50, Bifunctional epoxide hydrolase 2 (Mus musculus, UniProt P34914), entry COc1cc2c(cc1OC)CN1CCc3cc(NC(=O)NCc4ccc(OC(F)F)cc4)ccc3C1C2 (stereo not given) . Fill in?
Result: 0.73

Problem: Missing value: IC50, Bifunctional epoxide hydrolase 2 (Mus musculus, UniProt P34914), entry COc1cc2c(cc1OC)-c1cc3ccc(NC(=O)NCc4ccc(OC(F)(F)F)cc4)cc3c(=O)n1CC2 . Fill in?
Result: 37.6

Problem: Missing value: IC50, Bifunctional epoxide hydrolase 2 (Mus musculus, UniProt P34914), entry CN1Cc2cc(NC(=O)NCc3ccc(OC(F)(F)F)cc3)ccc2-c2ccc3ccccc3c21 . Fill in?
Result: 12.1

Problem: Missing value: IC50, Bifunctional epoxide hydrolase 2 (Mus musculus, UniProt P34914), entry COc1cc2c(cc1OC)CN1CCc3cc(NC(=O)NCC4CCOCC4)ccc3C1C2 (stereo not given) . Fill in?
Result: 21.2

Problem: Missing value: IC50, Bifunctional epoxide hydrolase 2 (Mus musculus, UniProt P34914), entry COc1cc2c(cc1OC)C1Cc3ccc(NC(=O)NC[C@@H]4CCCO4)cc3CN1CC2 (stereo not given in full) . Fill in?
Result: 54.3

Problem: Missing value: IC50, Bifunctional epoxide hydrolase 2 (Mus musculus, UniProt P34914), entry CCC(=O)N1CCC(CNC(=O)Nc2ccc3c(c2)CN2CCc4cc5c(cc4C2C3)OCO5)CC1 (stereo not given) . Fill in?
Result: 15.6

Problem: Missing value: IC50, Bifunctional epoxide hydrolase 2 (Mus musculus, UniProt P34914), entry CCC(=O)N1CCC(CNC(=O)Nc2ccc3c(c2)CCN2Cc4cc(OC)c(OC)cc4CC32)CC1 (stereo not given) . Fill in?
Result: 42.7

Problem: Missing value: IC50, Bifunctional epoxide hydrolase 2 (Mus musculus, UniProt P34914), entry COc1cc2c(cc1OC)CN1CCc3cc(NC(=O)NCc4ccc(OC(F)(F)F)cc4)ccc3C1C2 (stereo not given) . Fill in?
Result: 2.83

Problem: Missing value: IC50, Bifunctional epoxide hydrolase 2 (Mus musculus, UniProt P34914), entry CC(C)CNC(=O)Nc1ccc2c(c1)CN(C)c1c-2ccc2ccccc12 . Fill in?
Result: 20.5

Problem: Missing value: IC50, Bifunctional epoxide hydrolase 2 (Mus musculus, UniProt P34914), entry CCC(=O)N1CCC(CNC(=O)Nc2ccc3c(c2)CN(C)c2c-3ccc3ccccc23)CC1 . Fill in?
Result: 6.94

Problem: Missing value: IC50, Bifunctional epoxide hydrolase 2 (Mus musculus, UniProt P34914), entry CCC(=O)N1CCC(CNC(=O)Nc2ccc3c(c2)CN2CCc4cc(OC)c(OC)cc4C2C3)CC1 (stereo not given) . Fill in?
Result: 18.8

Problem: Missing value: IC50, Bifunctional epoxide hydrolase 2 (Mus musculus, UniProt P34914), entry CCC(=O)N1CCC(NC(=O)Nc2ccc3c(c2)CN2CCc4cc5c(cc4C2C3)OCO5)CC1 (stereo not given) . Fill in?
Result: 97.1

Problem: Missing value: IC50, Bifunctional epoxide hydrolase 2 (Mus musculus, UniProt P34914), entry COc1cc2c(cc1OC)C1Cc3ccc(NC(=O)NCC4CCOCC4)cc3CN1CC2 (stereo not given) . Fill in?
Result: 19.4

Problem: Missing value: IC50, Bifunctional epoxide hydrolase 2 (Mus musculus, UniProt P34914), entry O=C(NCc1ccc(OC(F)F)cc1)Nc1ccc2c(c1)CN1CCc3cc4c(cc3C1C2)OCO4 (stereo not given) . Fill in?
Result: 0.67

Problem: Missing value: IC50, Bifunctional epoxide hydrolase 2 (Mus musculus, UniProt P34914), entry O=C(NCc1cccc(OC(F)(F)F)c1)Nc1ccc2c(c1)CN1CCc3cc4c(cc3C1C2)OCO4 (stereo not given) . Fill in?
Result: 2.34

Problem: Missing value: IC50, Bifunctional epoxide hydrolase 2 (Mus musculus, UniProt P34914), entry CC(C)CNC(=O)Nc1ccc2c(c1)CN1CCc3cc4c(cc3C1C2)OCO4 (stereo not given) . Fill in?
Result: 9.98

Problem: Missing value: IC50, Bifunctional epoxide hydrolase 2 (Mus musculus, UniProt P34914), entry COc1cc2c(cc1OC)C1Cc3ccc(NC(=O)NCc4ccc(OC(F)F)cc4)cc3CN1CC2 (stereo not given) . Fill in?
Result: 1.33

Problem: Missing value: IC50, Bifunctional epoxide hydrolase 2 (Mus musculus, UniProt P34914), entry COc1cc2c(cc1OC)-c1cc3ccc(NC(=O)NCc4ccc(OC(F)(F)F)cc4)cc3c[n+]1CC2 . Fill in?
Result: 210

Problem: Missing value: IC50, Bifunctional epoxide hydrolase 2 (Mus musculus, UniProt P34914), entry COc1cc2c(cc1OC)C1Cc3ccc(NC(=O)NCc4ccc(OC(F)(F)F)cc4)cc3CN1CC2 (stereo not given) . Fill in?
Result: 0.86

Problem: Missing value: IC50, Bifunctional epoxide hydrolase 2 (Mus musculus, UniProt P34914), entry O=C(NCc1ccc(OC(F)(F)F)cc1)Nc1ccc2c(c1)CN1CCc3cc4c(cc3C1C2)OCO4 (stereo not given) . Fill in?
Result: 1.49

Problem: Missing value: IC50, Bifunctional epoxide hydrolase 2 (Mus musculus, UniProt P34914), entry COc1cc2c(cc1OC)C1Cc3ccc(NC(=O)NCC4COC4)cc3CN1CC2 (stereo not given) . Fill in?
Result: 2650

Problem: Missing value: IC50, Bifunctional epoxide hydrolase 2 (Mus musculus, UniProt P34914), entry COc1cc2c(cc1OC)C1Cc3ccc(NC(=O)NCc4ccc(S(C)(=O)=O)cc4)cc3CN1CC2 (stereo not given) . Fill in?
Result: 6.13

Problem: Missing value: IC50, Bifunctional epoxide hydrolase 2 (Mus musculus, UniProt P34914), entry COc1cc2c(cc1OC)C1Cc3ccc(NC(=O)NCc4cccc(OC(F)(F)F)c4)cc3CN1CC2 (stereo not given) . Fill in?
Result: 2.55

Problem: Missing value: IC50, Bifunctional epoxide hydrolase 2 (Mus musculus, UniProt P34914), entry CN1Cc2cc(NC(=O)NCC3CCOCC3)ccc2-c2ccc3ccccc3c21 . Fill in?
Result: 5.56

Problem: Missing value: IC50, Bifunctional epoxide hydrolase 2 (Mus musculus, UniProt P34914), entry COc1cc2c(cc1OC)C1Cc3ccc(NC(=O)Nc4ccc(OC(F)(F)F)cc4)cc3CN1CC2 (stereo not given) . Fill in?
Result: 40.7

Problem: Missing value: IC50, Bifunctional epoxide hydrolase 2 (Mus musculus, UniProt P34914), entry COc1cc2c(cc1OC)C1Cc3ccc(NC(=O)NCc4ccc(S(N)(=O)=O)cc4)cc3CN1CC2 (stereo not given) . Fill in?
Result: 17.3

Problem: Missing value: IC50, Bifunctional epoxide hydrolase 2 (Mus musculus, UniProt P34914), entry CCC(=O)N1CCC(NC(=O)Nc2ccc3c(c2)CN2CCc4cc(OC)c(OC)cc4C2C3)CC1 (stereo not given) . Fill in?
Result: 143

Reference source: ChEMBL document CHEMBL6078704
